Target or system: T1, cynomolgus monkey PVRIG (Novoprotein, Cat NO. C09B) (cynomolgus monkey, UniProt A0A2K5WVV8 41-171)
T1 construct: also called cynomolgus monkey PVRIG protein
T1 sequence: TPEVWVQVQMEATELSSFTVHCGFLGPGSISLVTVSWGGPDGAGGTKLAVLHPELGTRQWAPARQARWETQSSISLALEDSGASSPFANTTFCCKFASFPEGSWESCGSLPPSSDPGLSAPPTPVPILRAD
Assay overview: ELISA, antigen coated
Examples of binders with documented pEC50 follow.
pEC50 here: minus log base 10 of the concentration, concentration in moles per litre.

Answered examples (4):
{"Binder": "PVRIG-A118-H7 (Fc fusion, humanized variant of PVRIG-A118; also called A118.VH7; not shown: constant part not restated for the humanized forms; parents are VHH-hinge-CH2-CH3 of human IgG1; detected by anti-human) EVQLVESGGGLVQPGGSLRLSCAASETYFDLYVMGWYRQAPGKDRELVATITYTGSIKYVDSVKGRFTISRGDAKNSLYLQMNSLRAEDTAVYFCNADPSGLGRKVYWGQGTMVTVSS", "Experimental readout": "pEC50", "Numeric readout": 10.09}
{"Binder": "PVRIG-A118-H4 (Fc fusion, humanized variant of PVRIG-A118; also called A118.VH4; not shown: constant part not restated for the humanized forms; parents are VHH-hinge-CH2-CH3 of human IgG1; detected by anti-human) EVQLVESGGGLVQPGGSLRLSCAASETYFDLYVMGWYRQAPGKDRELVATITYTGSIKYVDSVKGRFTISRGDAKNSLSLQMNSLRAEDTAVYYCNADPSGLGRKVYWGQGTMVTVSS", "Experimental readout": "pEC50", "Numeric readout": 10.14}
{"Binder": "PVRIG-A118-H3 (Fc fusion, humanized variant of PVRIG-A118; also called A118.VH3; not shown: constant part not restated for the humanized forms; parents are VHH-hinge-CH2-CH3 of human IgG1; detected by anti-human) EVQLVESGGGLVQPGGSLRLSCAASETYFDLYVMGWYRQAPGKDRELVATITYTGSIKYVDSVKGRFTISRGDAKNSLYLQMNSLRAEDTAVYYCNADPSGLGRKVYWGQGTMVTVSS", "Experimental readout": "pEC50", "Numeric readout": 10.10}
{"Binder": "PVRIG-A50-H2a (Fc fusion, humanized variant of PVRIG-A50; also called A50.VH2a; not shown: constant part not restated for the humanized forms; parents are VHH-hinge-CH2-CH3 of human IgG1; detected by anti-human) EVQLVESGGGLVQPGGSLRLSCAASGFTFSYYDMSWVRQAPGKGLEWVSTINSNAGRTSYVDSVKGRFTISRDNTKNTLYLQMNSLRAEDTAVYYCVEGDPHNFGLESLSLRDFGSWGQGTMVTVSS", "Experimental readout": "pEC50", "Numeric readout": 9.74}

Alright, here's another binder for you.
# lookup: pEC50 of PVRIG-A50-H1c (Fc fusion, humanized variant of PVRIG-A50; also called A50.VH1c; not shown: constant part not restated for the humanized forms; parents are VHH-hinge-CH2-CH3 of human IgG1; detected by anti-human) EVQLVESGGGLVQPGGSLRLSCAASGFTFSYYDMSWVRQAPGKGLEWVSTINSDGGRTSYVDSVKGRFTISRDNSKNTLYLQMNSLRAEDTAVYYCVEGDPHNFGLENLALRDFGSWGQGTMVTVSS
9.75
